B1: MLL5 (parent)
chain: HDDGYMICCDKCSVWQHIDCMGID

Variants of: B1
assay method text: protein stability index of a GFP-peptide fusion (GPS, HEK-293T) (PSI 1-6); higher = more stable;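 also: lentivirally expressed fusions sorted by FACS into six bins by GFP to DsRed ratio, PSI derived from sequencing read proportions per bin multiplied by bin number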
test settings: c terminus: a fixed tail appended
Param threshold (3) applies to protein stability index; output y when value >= threshold, n when value < threshold.

chain | category
HDDGYMICCDKCSVWQCIDCMGID [H17C] | y
HDDGYMICCDKCSVWQHIDCMIID [G22I] | n
HDDGYMICCDKCSVWQHIDCMGIG [D24G] | n
HDDGYMICCDKCQVWQHIDCMGID [S13Q] | n
HDDKYMICCDKCSVWQHIDCMGID [G4K] | n
HDDGYMICCDICSVWQHIDCMGID [K11I] | n
HDDRYMICCDKCSVWQHIDCMGID [G4R] | n
HDDGYMICCDKCEVWQHIDCMGID [S13E] | n
HDDGYMINCDKCSVWQHIDCMGID [C8N] | n
HDDGYMICCDKESVWQHIDCMGID [C12E] | y
HDCGYMICCDKCSVWQHIDCMGID [D3C] | n
HDDGYMICCDKCSVNQHIDCMGID [W15N] | y
HDDGYMICCDKCSVWQHRDCMGID [I18R] | y
HDDGYMICCDLCSVWQHIDCMGID [K11L] | n
HDDGYMICCDKCSVWCHIDCMGID [Q16C] | n
HEDGYMICCDKCSVWQHIDCMGID [D2E] | n
